measurement.description: basal RPMI8226 mitochondrial membrane potential changes, profiling panel, cell-based, JC-1 fluorescence, 24 h, 100 nL compound (AID 1169); note: test concentration not given here
details: RPMI8226 myeloma, JC-1 mitochondrial potential fluorescence, higher = more signal
For each entry below, report its z-score value.

# annotated cases, reported z-score shown
# molecule, z-score
measured = [
    ("C=CCC(OC(C)=O)[C@@H]1[C@@H](N(Cc2ccc(-c3cccc(C(F)(F)F)c3)o2)C(=O)c2ccc(-c3ccccc3)cc2)c2cc(OCCCO)ccc2N1C(=O)c1ccc(-c2ccccc2)cc1 (stereo partly drawn)", 0.287),
    ("CC[C@@H]1C=C(C(=O)O)[C@H](c2ccco2)N1S(=O)(=O)c1ccc(C)cc1", 0.604),
    ("CCOC(=O)C[C@H]1[C@H](OC(=O)Cc2ccc3c(c2)OCO3)[C@@H](NC(=O)c2ccc3ccccc3c2)c2cc(OCCCO)ccc2N1C(=O)c1ccccc1", 0.621),
    ("O=C1C2C=CC(C(O)C(c3ccccc3)c3ccccc3)N(n3cnnc3)C2C(=O)N1Cc1ccccc1 (stereo not drawn)", -0.42),
    ("COc1ccc(C(=O)Nc2cccc(CN3C(=O)[C@]4(O[C@H](CCO)[C@@H]([Si](C)(C)c5ccc(OC)cc5)[C@@H]4C)c4ccccc43)c2)cc1", -0.73),
    ("O=C1NC(=O)C2C1C=CC(C(O)C(c1ccccc1)c1ccccc1)N2Nc1ccc(Cl)cc1Cl (stereo not drawn)", -0.925),
]

For each of the items listed, what is its z-score?
1. C[C@@]1([C@@H](NC(=O)c2ccccc2)c2ccc(-c3ccccc3)cc2)C[C@H]1C1CCCCC1
2. C=CCOC(=O)[C@H]1[C@@H]2C(=O)O[C@@H](c3ccccc3)[C@@H](c3ccccc3)N2[C@@H](c2ccc(OCCOC(=O)[C@@H]3C[C@@H]4C(=O)N[C@@H](CCCC[N+](C)(C)C)C(=O)N4[C@@H]3c3ccc(O)cc3)cc2)[C@]12C(=O)Nc1ccccc12
3. COC(=O)[C@@]1(Cc2ccc(F)cc2)[C@@H]2[C@@H](CC(=O)[C@H]2CC(=O)C(=O)N(C)C)CN1C(=O)c1ccccc1
4. O=C(C1N=C(c2ccc(OCCCO)cc2)N(c2ccccc2)O1)N1CCOCC1 (stereo not drawn)
5. C=CCNC(=O)[C@@H]1[C@H]2C(=O)O[C@H](c3ccccc3)[C@H](c3ccccc3)N2[C@H](c2ccccc2OCCO)[C@@]12C(=O)N(C(=O)OCCOC)c1ccc(C#CCNC(N)=O)cc12
6. CC(C)(C)OC(=O)CC[C@@]1(C(N)=O)N=C(c2ccc(OCCCO)cc2)O[C@@H]1c1ccccc1

A)
[0.318, -0.923, -0.00425, -1.06, 0.159, 0.919]

Q) Look up and state reported z-score for COc1ccc(C(=O)O[C@H]2CC[C@]3(C)C4=C(CCC3C2(C)C)[C@]2(C)CC[C@H]([C@H](C)CCCC(C)C)[C@@]2(C)CC4)cc1 (stereo partly drawn)
A) -0.0976

Reference source for all entries: PubChem BioAssay
